Experiment: Pharmacokinetic study of 153 (and metabolite endothal) in SD rats, iv and po; plasma, liver, brain
Assay type: in vivo
Conditions: female, Sprague-Dawley (SD), rat, in vivo, iv, 1.25 mg/kg, Liver, 1.25 mg/kg IV, Mean; read-out: Cmax

{"columns": ["MOLECULE", "Cmax"],
 "data": [
  ["CCCOC(=O)C1C2CCC(O2)C1C(=O)N1CCN(C)CC1 (stereo not shown)", "762 ng/g"]
]}

* * *

Assay: Pharmacokinetic study of 153 (and metabolite endothal) in SD rats, iv and po; plasma, liver, brain
Format: in vivo
Conditions: female, SD, rat, in vivo, iv, 1.25 mg/kg, iv 1.25 mg/kg, 2 hr, Mean; read-out: 153 plasma concentration
ENDPOINT_LABEL: concentration at 2 h (ng/mL)

{"columns": ["MOLECULE", "ENDPOINT_LABEL", "UNIT_TAG", "QUANTITATIVE_RESULT"],
 "data": [
  ["CCCOC(=O)C1C2CCC(O2)C1C(=O)N1CCN(C)CC1 (stereo not shown) [Compound 153]", "concentration at 2 h", "ng/mL", 13.9]
]}

* * *

System: lung cancer (A549) cells
Test: WST cell viability assay, A549
Type: cell-based
Conditions: WST-20131028; read-out: IC50 A549

{"columns": ["COMPOUND", "TARGET_OF_ASSAY", "IC50"],
 "data": [
  ["CCCCCCCCCCCCCCCCCOC(=O)C1C2CCC(O2)C1C(=O)N1CCN(C)CC1 (stereo not shown)", "lung cancer (A549) cells", "4.71 µM"]
]}

* * *

Assay: Pharmacokinetic study of 153 (and metabolite endothal) in SD rats, iv and po; plasma, liver, brain
Type: in vivo
Conditions: female, SD, rat, in vivo, iv, 1.25 mg/kg, iv 1.25 mg/kg, 6 hr, Mean

{"columns": ["MOLECULE", "concentration at 6 h / ng/mL"],
 "data": [
  ["CCCOC(=O)C1C2CCC(O2)C1C(=O)N1CCN(C)CC1 (stereo not shown)", 1.03]
]}

* * *

Test: Pharmacokinetic study of 157 (and metabolite endothal) in SD rats, iv and po; plasma, liver, brain
Assay type: in vivo
Conditions: female, SD (Sprague-Dawley), rat, in vivo, po, 1.5 mg/kg, 157 in plasma, PO 1.5 mg/kg, rat 1; read-out: AUC

{"columns": ["COMPOUND", "UNIT_TAG", "AUC"],
 "data": [
  ["CCCCCCCOC(=O)C1C2CCC(O2)C1C(=O)N1CCN(C)CC1 (stereo not shown) [Compound 157]", "ng·h/mL", 3.4]
]}

* * *

Test: Pharmacokinetic study of 157 (and metabolite endothal) in SD rats, iv and po; plasma, liver, brain
Type: in vivo
Settings: female, Sprague-Dawley (SD), rat, in vivo, iv, 1.5 mg/kg, iv 1.5 mg/kg, 2 hr, Mean; read-out: 157 plasma concentration

{"columns": ["MOLECULE", "concentration at 2 h (ng/mL)"],
 "data": [
  ["CCCCCCCOC(=O)C1C2CCC(O2)C1C(=O)N1CCN(C)CC1 (stereo not shown) [Compound 157]", 0.524]
]}

* * *

Assay: in vivo
Conditions: female, Sprague-Dawley (SD), rat, in vivo, iv, 1.5 mg/kg, 100 brain concentration

{"columns": ["MOLECULE", "concentration at 2 h"],
 "data": [
  ["CN1CCN(C(=O)C2C3CCC(O3)C2C(=O)O)CC1 (stereo not shown) [Compound 100]", "27.2 ng/g"]
]}
